Molecular target: BTK (Homo sapiens (Human), UniProt Q06187)
Sequence (Q06187 whole entry, looked up, species assumed): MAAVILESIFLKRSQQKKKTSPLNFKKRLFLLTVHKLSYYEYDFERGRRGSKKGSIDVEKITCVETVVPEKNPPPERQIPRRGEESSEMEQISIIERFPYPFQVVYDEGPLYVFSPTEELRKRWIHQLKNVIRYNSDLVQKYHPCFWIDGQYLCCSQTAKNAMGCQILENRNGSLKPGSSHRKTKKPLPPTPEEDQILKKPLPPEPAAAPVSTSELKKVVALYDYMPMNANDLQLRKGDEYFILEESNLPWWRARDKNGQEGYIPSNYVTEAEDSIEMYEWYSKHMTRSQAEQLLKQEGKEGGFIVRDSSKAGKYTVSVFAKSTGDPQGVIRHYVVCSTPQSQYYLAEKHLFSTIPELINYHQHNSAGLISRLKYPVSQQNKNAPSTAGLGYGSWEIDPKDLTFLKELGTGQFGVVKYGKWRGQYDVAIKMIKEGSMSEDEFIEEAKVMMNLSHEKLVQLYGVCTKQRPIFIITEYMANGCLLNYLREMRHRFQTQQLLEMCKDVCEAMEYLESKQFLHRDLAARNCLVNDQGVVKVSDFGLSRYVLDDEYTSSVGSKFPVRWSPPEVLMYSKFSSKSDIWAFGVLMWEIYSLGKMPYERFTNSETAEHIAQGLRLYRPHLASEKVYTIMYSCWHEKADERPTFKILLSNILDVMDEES
Test: biochemical
pIC50: −log10 of the molar value.
Attribute measured: pIC50

Lookup: Give reported pIC50 value for CC#CC(=O)N1CCCC[C@H]1c1nc(-c2ccc(Oc3cccc(OC)c3)cc2)c2cnccn12
Found: 6.00 to 7.00

Lookup: Give reported pIC50 value for CC#CC(=O)N1CCCC[C@H]1c1nc(-c2ccc(OCc3cccc(F)c3)cc2)c2cnccn12
Found: 5.00 to 6.00

Lookup: Give reported pIC50 value for C=CC(=O)N1CCC[C@H]1c1nc(-c2ccc(OCc3cccc(F)c3F)cc2)c2cnccn12
Found: 7.00 to 8.00

Lookup: Give reported pIC50 value for COc1cccc(Oc2ccc(-c3nc([C@@H]4CCC5CCC(=O)N5C4)n4ccncc34)cc2)c1F (stereo partly shown)
Found: 6.00 to 7.00

Lookup: Give reported pIC50 value for C=CC(=O)N1CCC[C@H]1c1nc(-c2ccc(OCc3cccc(Cl)c3)cc2)c2cnccn12
Found: 7.00 to 8.00

Lookup: Give reported pIC50 value for CC#CC(=O)N1CCCC[C@H]1c1nc(-c2ccc(Oc3cccc(F)c3F)cc2)c2c(C)nccn12
Found: 7.00 to 8.00

Lookup: Give reported pIC50 value for C=CC(=O)N1CCC[C@H]1c1nc(-c2ccc(Oc3ccccc3)c(Cl)c2)c2cnccn12
Found: 7.00 to 8.00

Lookup: Give reported pIC50 value for CC#CC(=O)N1CCCC[C@H]1c1nc(-c2ccc(Oc3cccc(F)c3)cc2)c2c(C)nccn12
Found: 7.00 to 8.00

Lookup: Give reported pIC50 value for CC#CC(=O)N1CCCC[C@H]1c1nc(-c2ccc(COc3ccc(F)c(F)c3)cc2)c2c(C)nccn12
Found: 6.00 to 7.00

Lookup: Give reported pIC50 value for C=CC(=O)N1CCCC[C@H]1c1nc(-c2ccc(COc3cccc(F)c3)cc2)c2c(C)nccn12
Found: 7.00 to 8.00

Lookup: Give reported pIC50 value for CC#CC(=O)N1CCCC[C@H]1c1nc(-c2ccc(C(=O)Nc3ccccn3)cc2)c2c(C)nccn12
Found: 7.00 to 8.00

Lookup: Give reported pIC50 value for C=CC(=O)N1CCC[C@H]1c1nc(-c2ccc(Oc3cccc(C)c3)cc2)c2cnccn12
Found: 7.00 to 8.00

Lookup: Give reported pIC50 value for C=CC(=O)N1CCCC[C@H]1c1nc(-c2ccc(Oc3cccc(C)c3)cc2)c2cnccn12
Found: 7.00 to 8.00

Lookup: Give reported pIC50 value for C=CC(=O)N1CCCC[C@H]1c1nc(-c2ccc(OCc3cccc(F)c3F)cc2)c2c(C)nccn12
Found: 7.00 to 8.00

Lookup: Give reported pIC50 value for CC#CC(=O)N1CC[C@@H](c2nc(-c3ccc(C(=O)Nc4ccccn4)cc3)c3c(C)ncc(C)n23)C1
Found: 6.00 to 7.00

Lookup: Give reported pIC50 value for CC#CC(=O)N1CCC[C@H]1c1nc(-c2ccc(Oc3cccc(OC)c3F)cc2)c2cnccn12
Found: 7.00 to 8.00

----------
Molecular target: BTK (Homo sapiens (Human), UniProt Q06187)
Assay: biochemical
pIC50: −log10 of the molar value.
Attribute measured: pIC50

Lookup: Give reported pIC50 value for CC#CC(=O)N1CCC[C@H]1c1nc(-c2ccc(Oc3cccc(OC)c3F)cc2)c2c(CO)nccn12
Found: 6.00 to 7.00

Lookup: Give reported pIC50 value for CC#CC(=O)N1CCC[C@H]1c1nc(-c2ccc(C(=O)Nc3ccccn3)cc2)c2c(C)ncc(C)n12
Found: 6.00 to 7.00

Lookup: Give reported pIC50 value for CC#CC(=O)N1CCC[C@H]1c1nc(-c2ccc(Oc3cccc(OC)c3F)cc2)c2c(C)ncc(C)n12
Found: 7.00 to 8.00

Lookup: Give reported pIC50 value for COc1cccc(Oc2ccc(-c3nc([C@@H]4CCCN4Cc4ccccc4)n4ccncc34)cc2)c1F
Found: 5.00 to 6.00

Lookup: Give reported pIC50 value for COc1cccc(Oc2ccc(-c3nc([C@@H]4CCCN(C(=O)C(N)=O)C4)n4ccncc34)cc2)c1F
Found: 5.00 to 6.00

Lookup: Give reported pIC50 value for C=CC(=O)N1CC[C@@H](c2nc(-c3ccc(C(=O)Nc4ccccn4)cc3)c3c(C)ncc(C)n23)C1
Found: 7.00 to 8.00

Lookup: Give reported pIC50 value for C=CC(=O)N1CCC[C@H]1c1nc(-c2ccc(Oc3cccc(OC)c3F)cc2)c2c(O)nccn12
Found: 7.00 to 8.00

Ref: patent US10933063B2
